system: Target C; experiment: Splicing RT-qPCR panel, Target C canonical junction (CJ) mRNA; assay type: cell-based, human; conditions: Homo sapiens, RT-qPCR panel, canonical junction mRNA; compound concentration having 50% response in CJ decrease; read-out: Target C IC50 (decrease in CJ mRNA levels)
pIC50: −log10 of the molar value.
property-name: pIC50

Task item: API: value(readout=pIC50, system=Target C) for record c1nc2c(-c3cn[nH]c3)ccc(-c3ccc(N4CCC5(CCNCC5)C4)nn3)c2s1
Reply: < 5.00

Task item: Also, c1nc2c(-c3cn[nH]c3)ccc(-c3ccc(S[C@@H]4C[C@H]5CC[C@@H](C4)N5)nn3)c2s1 please.
Reply: < 5.00

Task item: Same again, this time with c1nc2c(-c3cn[nH]c3)ccc(-c3ccc(N(C4CC4)C4C[C@H]5CCC[C@@H](C4)N5)nn3)c2s1 (stereo partly shown)
Reply: 6.00 to 7.00

Task item: Also, COc1cc(-c2ccc(-c3ccc(N(C)C4CC(C)(C)NC(C)(C)C4)nn3)c3scnc23)cnn1 please.
Reply: > 7.00

Task item: Field entry: CN(c1ncc(-c2ccc(-n3ccnn3)c3[nH]ncc23)nn1)[C@@H]1C[C@H]2CCC[C@@H](C1)N2
Reply: 6.00 to 7.00

Task item: Do the same for CN(c1ccc(-c2ccc(-c3cnn(C)c(=O)c3)c3scnc23)nn1)C1CC(C)(C)NC(C)(C)C1 please
Reply: 6.00 to 7.00

Task item: Now consider c1n[nH]cc1-c1ccc(-c2ccc(N3CCCC4(CCNC4)C3)nn2)c2[nH]ncc12 (stereo not shown) .
Reply: < 5.00
